Target: Adenosine A2 receptor (Rattus norvegicus, UniProt P29276+P30543)
Assay type: protein assay
REPORTED_PROPERTY: Ki (nM)

| COMPOUND | Ki (nM) |
| --- | --- |
| CC(=O)O[C@]1(C(C)=O)CC[C@H]2[C@@H]3C=C(Cl)C4=CC(=O)[C@@H]5C[C@@H]5[C@]4(C)[C@H]3CC[C@@]21C [CYPROTERONE ACETATE] | 336 |
| CCCCC#Cc1nc(N)c2ncn([C@@H]3O[C@H](CCl)[C@@H](O)[C@H]3O)c2n1 | 5.2 |
| CCCCCCC#Cc1nc(N)c2ncn([C@@H]3O[C@H](CO)[C@@H](O)[C@H]3O)c2n1 | 6.1 |
| CCCCC#Cc1nc(N)c2ncn(C3O[C@H](C(=O)NCCC)[C@@H](O)[C@H]3O)c2n1 (stereo partly specified) | 44 |
| CCCCC#Cc1nc(N)c2ncn([C@@H]3O[C@H](C(=O)NC4CC4)[C@@H](O)[C@H]3O)c2n1 | 2.6 |
| COc1cc(OC)cc(C(CNc2ncnc3c2ncn3[C@@H]2O[C@H](CO)[C@@H](O)[C@H]2O)c2ccccc2C)c1 (stereo partly specified) | 4.6 |
| CCCCC#Cc1nc(N)c2ncn([C@@H]3O[C@H](C(N)=O)[C@@H](O)[C@H]3O)c2n1 | 19 |
| CCCCC#Cc1nc(N)c2ncn(C3O[C@H](C(=O)NC)[C@@H](O)[C@H]3O)c2n1 (stereo partly specified) | 11 |
| CCCCC#Cc1nc(N)c2ncn([C@@H]3O[C@H](C(=O)NCC)[C@@H](O)[C@H]3O)c2n1 | 4.8 |

P = CCCCC#Cc1nc(N)c2ncn([C@@H]3O[C@H](C(=O)NCCCC)[C@@H](O)[C@H]3O)c2n1
Q = Nc1nc(Nc2ccccc2)nc2c1ncn2[C@@H]1O[C@H](CO)[C@@H](O)[C@H]1O
Query: Which value of Ki is smaller, the one for P or the one for Q ? Refer to your chosen item by its label in the answer.
Response: Q
(Q: 83 nM, P: 169 nM)
